tested on: rat liver mitochondria (RLM); assay: Mitochondrial respiration of isolated RLM (Clark-type oxygen electrode); type: biochemical; conditions: succinate; 2.5 μM
If the reported RCR (respiratory control ratio, state 3/state 4) equals or exceeds 4, assign label 1. If not, assign label 0.

Solved cases (2 shown):
- compound: "CS(=O)(=O)[O-].O=C(/C=C/c1cc(O)c(O)c(O)c1)NCCCCCC[P+](c1ccccc1)(c1ccccc1)c1ccccc1 [AntiOxCIN4]"
  study_system: "rat liver mitochondria (RLM)"
  assigned_category: "label 0"
- compound: "COC1=C(OC)C(=O)C(CCCCCCCCCC[P+](c2ccccc2)(c2ccccc2)c2ccccc2)=C(C)C1=O.CS(=O)(=O)[O-] [MitoQ, reference compound]"
  study_system: "rat liver mitochondria (RLM)"
  assigned_category: "label 0"

Input: Threshold query (RCR (respiratory control ratio, state 3/state 4) >= 4) on CS(=O)(=O)[O-].O=C(/C=C/c1cc(O)c(O)c(O)c1)NCCCCCCCC[P+](c1ccccc1)(c1ccccc1)c1ccccc1 [AntiOxCIN5]
Output: label 1

Input: Input CS(=O)(=O)[O-].O=C(/C=C/c1ccc(O)c(O)c1)NCCCCCCCCCC[P+](c1ccccc1)(c1ccccc1)c1ccccc1 [AntiOxCIN6]
Output: label 0

Input: Let us now turn to CS(=O)(=O)[O-].O=C(/C=C/c1ccc(O)c(O)c1)NCCCCCC[P+](c1ccccc1)(c1ccccc1)c1ccccc1 [AntiOxCIN2]
Output: label 0

---

test system: rat liver mitochondria (RLM); assay: Mitochondrial respiration of isolated RLM (Clark-type oxygen electrode); type: biochemical; conditions: all tested concentrations (2.5-10 μM), FIG. 6B-H
assay_endpoint: effect on state 3 respiration

Completed entries (count: 5):
- molecule: "CS(=O)(=O)[O-].O=C(/C=C/c1cc(O)c(O)c(O)c1)NCCCCCC[P+](c1ccccc1)(c1ccccc1)c1ccccc1 [AntiOxCIN4]"
  effect on state 3 respiration: "decrease"
- molecule: "CS(=O)(=O)[O-].O=C(/C=C/c1cc(O)c(O)c(O)c1)NCCCCCCCC[P+](c1ccccc1)(c1ccccc1)c1ccccc1 [AntiOxCIN5]"
  effect on state 3 respiration: "increase"
- molecule: "CS(=O)(=O)[O-].O=C(/C=C/c1ccc(O)c(O)c1)NCCCCCCCC[P+](c1ccccc1)(c1ccccc1)c1ccccc1 [AntiOxCIN3]"
  effect on state 3 respiration: "increase"
- molecule: "CS(=O)(=O)[O-].O=C(/C=C/c1ccc(O)c(O)c1)NCCCCCCCCCC[P+](c1ccccc1)(c1ccccc1)c1ccccc1 [AntiOxCIN6]"
  effect on state 3 respiration: "increase"
- molecule: "CS(=O)(=O)[O-].O=C(/C=C/c1cc(O)c(O)c(O)c1)NCCCCCCCCCC[P+](c1ccccc1)(c1ccccc1)c1ccccc1 [AntiOxCIN7]"
  effect on state 3 respiration: "increase"

Shifting focus to the molecule that follows.
Input: I have this molecule here, CS(=O)(=O)[O-].O=C(/C=C/c1ccc(O)c(O)c1)NCCCCCC[P+](c1ccccc1)(c1ccccc1)c1ccccc1 [AntiOxCIN2] , and I need its recorded effect on state 3 respiration.
Output: decrease

---

tested on: rat liver mitochondria (RLM); assay: Mitochondrial respiration of isolated RLM (Clark-type oxygen electrode); format: biochemical; details: glutamate/malate; 10 μM
assay_endpoint: RCR (respiratory control ratio, state 3/state 4)
Enter the number alone.

Example molecules with recorded RCR (respiratory control ratio, state 3/state 4):
- molecule: "CS(=O)(=O)[O-].O=C(/C=C/c1ccc(O)c(O)c1)NCCCCCCCC[P+](c1ccccc1)(c1ccccc1)c1ccccc1 [AntiOxCIN3]"
  result_value: 3.3
- molecule: "CS(=O)(=O)[O-].O=C(/C=C/c1ccc(O)c(O)c1)NCCCCCC[P+](c1ccccc1)(c1ccccc1)c1ccccc1 [AntiOxCIN2]"
  result_value: 3.4
- molecule: "CS(=O)(=O)[O-].O=C(/C=C/c1ccc(O)c(O)c1)NCCCCCCCCCC[P+](c1ccccc1)(c1ccccc1)c1ccccc1 [AntiOxCIN6]"
  result_value: 2.6

Input: API: value(readout= RCR (respiratory control ratio, state 3/state 4), system= rat liver mitochondria (RLM), query= COC1=C(OC)C(=O)C(CCCCCCCCCC[P+](c2ccccc2)(c2ccccc2)c2ccccc2)=C(C)C1=O.CS(=O)(=O)[O-] [MitoQ, reference compound] )
Output: 1.3
